target: Atrial natriuretic peptide receptor 1 (Homo sapiens); assay: Natriuretic polypeptide receptor (hNpr1) antagonism - Confirmation; details: HEK293 hNpr1 cGMP GloSensor luminescence, ANP-stimulated; series mostly up to 57.6 µM; further: potency means the concentration at half of the fitted maximal effect; nearly all actives have a fitted effect of over 70% in size
The campaign covered roughly 1,400 compounds. About 1,100 (79%) were called active. Another 20% or so got no clear call; they are omitted. So high a share suggests a set chosen from earlier hits. A selection follows.
Recorded Metric: Potency

Please review the entries below; each comes with its answer.
{"Compound": "Cc1cc(N2CCCC(Cn3cc(Cc4ccccc4)nn3)C2)nc(N)n1 (stereo not given)", "Potency": "6.11 µM (active)"}
{"Compound": "COc1cccc(CNC(=O)Cn2c(N(C)Cc3ccccc3)nc(C)cc2=O)c1OC", "Potency": "24.3 µM (active)"}
{"Compound": "COc1cccc(NC(=O)Cn2c(N(C)Cc3ccccc3)nc(C)cc2=O)c1", "Potency": "10.9 µM (active)"}

I have 7 compounds here; please give me Potency for each one.
1. COc1ccc(C2Cn3nnc(C(=O)N4CCN(C(=O)c5ccc(C)cc5C)CC4)c3CO2)cc1 (stereo not given)
2. O=C(c1ccccc1)N1CCC(C(=O)N2CCC(Cc3nc(-c4ccc(F)cc4)no3)CC2)CC1
3. O=C1c2cnc(-c3ccc(Cl)cc3)nc2OCCN1Cc1ccccc1
4. N#Cc1cccc(CN2CCC(C3=NC(O)c4cc(F)ccc4N3)CC2)c1 (stereo not given)
5. Cc1ccc(OCc2nc(C3CCN(C(=O)CCc4nc5ccc(Cl)cc5[nH]4)CC3)no2)cc1
6. CC(C)(C)c1csc(NC(=O)c2ccc3c(c2)OCCN(C2CCC2)C3)n1
7. COc1ccc(C2Cn3nnc(C(=O)N4CCN(C(=O)c5cccc(Cl)c5)CC4)c3CO2)cc1 (stereo not given)

1. 24.3 µM (active)
2. 17.2 µM (active)
3. 35.3 µM (active)
4. 15.3 µM (active)
5. 24.3 µM (active)
6. 35.3 µM (active)
7. 13.7 µM (active)
